System: CHO-K1 cells
measurementDescription: cytotoxicity using CHO-K1 cells
Type: cell-based, Chinese hamster
conditionDetails: Cricetulus griseus, CHO-K1 ovary sane cell line
Experimental: Cytotoxicity was tested using CHO-K1 cells and anti-proliferative activity was examined using HT29 cells. The effects were compared with Doxorubicin and Sodium butyrate.
measure: IC50

query: Write down IC50 measured for item COc1cccc2c1C(=O)c1c(O)c3c(c(O)c1C2=O)C[C@@](O)(C(=O)CO)C[C@@H]3O[C@H]1C[C@H](N)[C@H](O)[C@H](C)O1 [Doxorubicin]
result: 1.99 µM
